test system: U2OS; experiment: Multiplex assay against U2OS; format: toxicity, cell-based; conditions: human, 12 h, 10 µM, compound concentration 10 uM, replicate 2
Mark each entry T if its Population Pyknosed Nuclei (%) sits below 10%, and F for all others.

Cc1cn(-c2cc(NC(=O)c3ccc4c(c3)CN(c3cncnc3)C[C@@H]4C)cc(C(F)(F)F)c2)cn1
T
Nc1nc2c(c(N3CCNCC3)n1)CCC1=C2[C@@H]2CCCC[C@@H]2O1
F
CNC(=O)c1cc(Oc2ccc(NC(=O)Nc3cc(C(C)(C)C)nn3-c3ccc4ncccc4c3)c(F)c2)ccn1
F

Qu. Just wondering, is Population Pyknosed Nuclei (%) of Cc1c(Oc2ccc(F)cc2)c(OC(C)C)nn1-c1ccc(C2CC2)cn1 below 10%?
Ans. T

Qu. Just wondering, is Population Pyknosed Nuclei (%) of CC(=O)c1cc(-c2cc(C(=O)NC3CC3)ccc2C)c2ncccn12 below 10%?
Ans. T

Qu. Just wondering, is Population Pyknosed Nuclei (%) of Cc1cc2c(cc1N1C(=O)c3cccc4c(CCCO)ccc(c34)C1=O)n(C)c(=O)n2C below 10%?
Ans. F

Qu. Just wondering, is Population Pyknosed Nuclei (%) of COc1ccc(NS(=O)(=O)c2sc3ccc(Cl)cc3c2C)cc1N1CCNCC1.Cl below 10%?
Ans. F

Qu. Just wondering, is Population Pyknosed Nuclei (%) of COc1cc2c(Nc3ccc(NC(=O)c4ccccc4)cc3)ncnc2cc1OCCCN1CCOCC1 below 10%?
Ans. T

Qu. Just wondering, is Population Pyknosed Nuclei (%) of CCOc1cc2ncc(C#N)c(Nc3ccc(OCc4cccc(F)c4)c(Cl)c3)c2cc1NC(=O)/C=C/CN(C)C below 10%?
Ans. F
